Taken from patent US8710252B2.

# MEASUREMENT_TARGET: Ga14-DBD-PPAR gamma-LBD fusion protein (Homo sapiens)
# Construct: expressed in transfected cells; host or cells: mouse embryonic fibroblasts (MEFs) or ME3 cells
# Sequence (P37231 238-503 limits assumed): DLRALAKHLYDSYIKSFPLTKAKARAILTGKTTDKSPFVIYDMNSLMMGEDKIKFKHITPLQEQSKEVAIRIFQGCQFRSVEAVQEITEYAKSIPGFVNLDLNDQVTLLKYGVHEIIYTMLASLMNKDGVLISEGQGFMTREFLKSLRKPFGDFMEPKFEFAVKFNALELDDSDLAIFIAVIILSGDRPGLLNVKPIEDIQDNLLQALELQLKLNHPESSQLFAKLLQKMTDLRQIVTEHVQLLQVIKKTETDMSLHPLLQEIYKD
# METHOD_NOTES: PPAR gamma transactivation assay (Gal4-PPAR gamma LBD / UASx4-TK-luc reporter)
# Format: cell-based
# CONDITION_DETAILS: Experiment 3, 1 microM
Recorded PPAR Activation as % of positive control (Avandia), one value per entry.
PARAMETER_MEASURED: PPAR Activation as % of positive control (Avandia)

- MOLECULE: "CCCCC/C=C\\C[C@@H]1C[C@H]1/C=C/[C@@H](O)C/C=C\\CCCC(=O)OC [Compound F]"
  RECORDED_MEASUREMENT: "18 +/− 5 % of positive control (Avandia)"
- MOLECULE: "CCCCC/C=C\\CC1CC1C(O)/C=C\\C/C=C\\CCCC(=O)OC (stereo not shown) [Compound B]"
  RECORDED_MEASUREMENT: "16 +/− 6 % of positive control (Avandia)"
- MOLECULE: "CCCCC/C=C\\CC1CC1C(O)/C=C\\C/C=C\\CCCC(=O)OC (stereo not shown) [Compound C]"
  RECORDED_MEASUREMENT: "7 +/− 1 % of positive control (Avandia)"
- MOLECULE: "CCCCC/C=C\\C[C@H]1C[C@@H]1[C@H](O)/C=C\\C/C=C\\CCCC(=O)OC [Compound A]"
  RECORDED_MEASUREMENT: "12 +/− 1 % of positive control (Avandia)"

* * *

# PPAR Activation as % of positive control (Avandia) annotations
# MEASUREMENT_TARGET: Ga14-DBD-PPAR gamma-LBD fusion protein (Homo sapiens, UniProt P37231)
# Construct: expressed in transfected cells; host or cells: mouse embryonic fibroblasts (MEFs) or ME3 cells
# Sequence (P37231 238-503 limits assumed): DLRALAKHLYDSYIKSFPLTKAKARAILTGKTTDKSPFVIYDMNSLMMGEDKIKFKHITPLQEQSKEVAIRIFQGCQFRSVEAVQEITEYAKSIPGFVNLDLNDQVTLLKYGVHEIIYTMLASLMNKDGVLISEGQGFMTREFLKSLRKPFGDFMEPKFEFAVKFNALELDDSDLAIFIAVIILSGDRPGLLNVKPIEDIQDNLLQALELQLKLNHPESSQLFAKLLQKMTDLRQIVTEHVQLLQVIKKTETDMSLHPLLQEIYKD
# METHOD_NOTES: PPAR gamma transactivation assay (Gal4-PPAR gamma LBD / UASx4-TK-luc reporter)
# Assay type: cell-based
# CONDITION_DETAILS: Experiment 3, 1 microM
PARAMETER_MEASURED: PPAR Activation as % of positive control (Avandia)

- MOLECULE: "CCCCC/C=C\\CC1CC1C(O)/C=C\\C/C=C\\CCCC(=O)OC (centres unmarked) [Compound D]"
  RECORDED_MEASUREMENT: "8 +/− 1 % of positive control (Avandia)"
- MOLECULE: "CCCCC/C=C\\CC1CC1C(O)/C=C\\C/C=C\\CCCC(=O)OC (centres unmarked) [PBT-3, reference compound]"
  RECORDED_MEASUREMENT: "18 +/− 4 % of positive control (Avandia)"
- MOLECULE: "CCCCC/C=C\\CC1CC1/C=C/C(O)C/C=C\\CCCC(=O)OC (centres unmarked) [Compound E]"
  RECORDED_MEASUREMENT: "11 +/− 2 % of positive control (Avandia)"
- MOLECULE: "CCCCC/C=C\\CC1CC1C(O)/C=C\\C/C=C\\CCCC(=O)OC (centres unmarked) [PBT-4, reference compound]"
  RECORDED_MEASUREMENT: "15 +/− 7 % of positive control (Avandia)"
- MOLECULE: "CCCCC/C=C\\CC1CC1/C=C/C(O)C/C=C\\CCCC(=O)OC (centres unmarked) [PBT-1, reference compound]"
  RECORDED_MEASUREMENT: "34 +/− 2 % of positive control (Avandia)"

* * *

# MEASUREMENT_TARGET: Ga14-DBD-PPAR gamma-LBD fusion protein (Homo sapiens, UniProt P37231)
# Construct: expressed in transfected cells; host or cells: mouse embryonic fibroblasts (MEFs) or ME3 cells
# METHOD_NOTES: PPAR gamma transactivation assay (Gal4-PPAR gamma LBD / UASx4-TK-luc reporter)
# Type: cell-based
# CONDITION_DETAILS: Experiment 1, 1 microM
PARAMETER_MEASURED: PPAR Activation as % of positive control (Avandia)

- COMPOUND: "CCCCC/C=C\\C[C@@H]1C[C@H]1/C=C/[C@@H](O)C/C=C\\CCCC(=O)OC"
  RECORDED_MEASUREMENT: "12 +/− 7 % of positive control (Avandia)"
- COMPOUND: "CCCCC/C=C\\CC1CC1C(O)/C=C\\C/C=C\\CCCC(=O)OC (stereo not shown) [PBT-3, reference compound]"
  RECORDED_MEASUREMENT: "15 +/− 2 % of positive control (Avandia)"
- COMPOUND: "CCCCC/C=C\\CC1CC1C(O)/C=C\\C/C=C\\CCCC(=O)OC (stereo not shown) [Compound B]"
  RECORDED_MEASUREMENT: "21 +/− 3 % of positive control (Avandia)"
- COMPOUND: "CCCCC/C=C\\C[C@H]1C[C@@H]1[C@H](O)/C=C\\C/C=C\\CCCC(=O)OC"
  RECORDED_MEASUREMENT: "14 +/− 4 % of positive control (Avandia)"

* * *

# MEASUREMENT_TARGET: Ga14-DBD-PPAR gamma-LBD fusion protein (Homo sapiens)
# Construct: expressed in transfected cells; host or cells: mouse embryonic fibroblasts (MEFs) or ME3 cells
# METHOD_NOTES: PPAR gamma transactivation assay (Gal4-PPAR gamma LBD / UASx4-TK-luc reporter)
# Format: cell-based
# CONDITION_DETAILS: Experiment 2, 0.1 microM
Attribute: PPAR Activation as % of positive control (Avandia)
PARAMETER_MEASURED: PPAR Activation as % of positive control (Avandia)

- MOLECULE: "CCCCC/C=C\\CC1CC1C(O)/C=C\\C/C=C\\CCCC(=O)OC (stereo not drawn) [Compound C]"
  MEASUREMENT_TARGET: "Ga14-DBD-PPAR gamma-LBD fusion protein (Homo sapiens)"
  RECORDED_MEASUREMENT: "4 +/− 1 % of positive control (Avandia)"
- MOLECULE: "CCCCC/C=C\\CC1CC1C(O)/C=C\\C/C=C\\CCCC(=O)OC (stereo not drawn) [PBT-4, reference compound]"
  MEASUREMENT_TARGET: "Ga14-DBD-PPAR gamma-LBD fusion protein (Homo sapiens)"
  RECORDED_MEASUREMENT: "4 +/− 1 % of positive control (Avandia)"
- MOLECULE: "CCCCC/C=C\\CC1CC1C(O)/C=C\\C/C=C\\CCCC(=O)OC (stereo not drawn) [Compound B]"
  MEASUREMENT_TARGET: "Ga14-DBD-PPAR gamma-LBD fusion protein (Homo sapiens)"
  RECORDED_MEASUREMENT: "4 +/− 1 % of positive control (Avandia)"
- MOLECULE: "CCCCC/C=C\\C[C@@H]1C[C@H]1/C=C/[C@@H](O)C/C=C\\CCCC(=O)OC"
  MEASUREMENT_TARGET: "Ga14-DBD-PPAR gamma-LBD fusion protein (Homo sapiens)"
  RECORDED_MEASUREMENT: "5 +/− 1 % of positive control (Avandia)"
- MOLECULE: "CCCCC/C=C\\C[C@H]1C[C@@H]1[C@H](O)/C=C\\C/C=C\\CCCC(=O)OC"
  MEASUREMENT_TARGET: "Ga14-DBD-PPAR gamma-LBD fusion protein (Homo sapiens)"
  RECORDED_MEASUREMENT: "4 +/− 1 % of positive control (Avandia)"
- MOLECULE: "CCCCC/C=C\\CC1CC1C(O)/C=C\\C/C=C\\CCCC(=O)OC (stereo not drawn) [PBT-3, reference compound]"
  MEASUREMENT_TARGET: "Ga14-DBD-PPAR gamma-LBD fusion protein (Homo sapiens)"
  RECORDED_MEASUREMENT: "4 +/− 1 % of positive control (Avandia)"
- MOLECULE: "CCCCC/C=C\\CC1CC1/C=C/C(O)C/C=C\\CCCC(=O)OC (stereo not drawn) [Compound E]"
  MEASUREMENT_TARGET: "Ga14-DBD-PPAR gamma-LBD fusion protein (Homo sapiens)"
  RECORDED_MEASUREMENT: "4 +/− 1 % of positive control (Avandia)"
- MOLECULE: "CCCCC/C=C\\CC1CC1/C=C/C(O)C/C=C\\CCCC(=O)OC (stereo not drawn) [PBT-1, reference compound]"
  MEASUREMENT_TARGET: "Ga14-DBD-PPAR gamma-LBD fusion protein (Homo sapiens)"
  RECORDED_MEASUREMENT: "7 +/− 1 % of positive control (Avandia)"
- MOLECULE: "CCCCC/C=C\\CC1CC1C(O)/C=C\\C/C=C\\CCCC(=O)OC (stereo not drawn) [Compound D]"
  MEASUREMENT_TARGET: "Ga14-DBD-PPAR gamma-LBD fusion protein (Homo sapiens)"
  RECORDED_MEASUREMENT: "4 +/− 1 % of positive control (Avandia)"
